test: Pharmacokinetic assay in Balb/c mice (plasma and brain tissue); type: in vivo; details: male, Balb/c, mouse, brain, po, 5 mg/kg, Balb/c mice, 5 mg/kg p.o., brain tissue; read-out: Area under curve AUC0-∞
metric: AUC(0-inf) (ng·h/mL)
Enter your answer as a number in ng·h/mL; do not include the unit.

The molecule C[C@@]1(O)CC[C@@]2(F)[C@H](CC[C@H]3[C@@H]4CC[C@H](C(=O)Cn5cc(C#N)cn5)[C@@]4(C)CC[C@@H]32)C1 [Example 2] showed AUC(0-inf) equal to 1790

====

Experiment: Pharmacokinetic assay in Balb/c mice (plasma and brain tissue)
Type: in vivo
Details: male, Balb/c, mouse, in vivo, po, 5 mg/kg, Plasma concentration Cmax
Protocol: Balb/c mice were used as test animals. The pharmacokinetic behavior in mice (plasma and brain tissue) of the compounds of Example 2, Example 5, Example 7, Example 12, Example 18, Example 23, Example 26, Example 38, Example 41, Example 50, Example 51 and Example 66 orally administrated at a dose of 5 mg/kg was studied. Each group had 24 male Balb/c mice. […] The main parameters of pharmacokinetics were calculated by WinNonlin 6.1.
metric: Cmax (ng/mL)
Enter your answer as a number in ng/mL; do not include the unit.

The compound C[C@@]1(O)CC[C@@]2(F)[C@H](CC[C@H]3[C@@H]4CC[C@H](C(=O)CNc5ccc(F)cc5)[C@@]4(C)CC[C@@H]32)C1 showed Cmax equal to 408

The compound C[C@@]1(O)CC[C@@]2(F)[C@H](CC[C@H]3[C@@H]4CC[C@H](C(=O)Cn5ccc(C(F)(F)F)n5)[C@@]4(C)CC[C@@H]32)C1 showed Cmax equal to 242

The compound C[C@@]1(O)CC[C@]2(F)C3CC[C@]4(C)[C@@H](C(=O)CNc5ccc(F)cc5F)CC[C@H]4[C@@H]3CC[C@@H]2C1 (some centres unmarked) showed Cmax equal to 232

The compound Cc1nnn(CC(=O)[C@H]2CC[C@H]3[C@@H]4CC[C@@H]5C[C@](C)(O)CC[C@]5(F)[C@H]4CC[C@]23C)n1 showed Cmax equal to 1230

The compound Cc1nn(CC(=O)[C@H]2CC[C@H]3[C@@H]4CC[C@@H]5C[C@](C)(O)CC[C@]5(F)[C@H]4CC[C@]23C)cc1C#N showed Cmax equal to 1110

====

assay: Pharmacokinetic assay in Balb/c mice (plasma and brain tissue); type: in vivo; conditions: male, Balb/c, mouse, in vivo, po, 5 mg/kg, Area under curve AUC0-∞
metric: AUC(0-inf) (ng·h/mL)
Enter your answer as a number in ng·h/mL; do not include the unit.

The compound C[C@@]1(O)CC[C@@]2(F)[C@H](CC[C@H]3[C@@H]4CC[C@H](C(=O)Cn5cc(C(F)(F)F)cn5)[C@@]4(C)CC[C@@H]32)C1 [Example 7] showed AUC(0-inf) equal to 3780

The compound C[C@@]1(O)CC[C@]2(F)C3CC[C@]4(C)[C@@H](C(=O)Cn5cc(C#N)c(Cl)n5)CC[C@H]4[C@@H]3CC[C@@H]2C1 (stereo partly drawn) [Example 51] showed AUC(0-inf) equal to 2080

The compound Cc1nn(CC(=O)[C@H]2CC[C@H]3[C@@H]4CC[C@@H]5C[C@](C)(O)CC[C@]5(F)[C@H]4CC[C@]23C)cc1C#N [Example 38] showed AUC(0-inf) equal to 1970

The compound C[C@@]1(O)CC[C@@]2(F)[C@H](CC[C@H]3[C@@H]4CC[C@H](C(=O)Cn5nc6ccc(F)cc6n5)[C@@]4(C)CC[C@@H]32)C1 [Example 18] showed AUC(0-inf) equal to 1540

The compound C[C@@]1(O)CC[C@]2(F)C3CC[C@]4(C)[C@@H](C(=O)CNc5ccc(F)cc5F)CC[C@H]4[C@@H]3CC[C@@H]2C1 (stereo partly drawn) [Example 26] showed AUC(0-inf) equal to 772

The compound C[C@@]1(O)CC[C@@]2(F)[C@H](CC[C@H]3[C@@H]4CC[C@H](C(=O)Cn5ccc(C(F)(F)F)n5)[C@@]4(C)CC[C@@H]32)C1 [Example 5] showed AUC(0-inf) equal to 524
